Details: buffer; pH 7.4; 200.0 µM
readout.name: solubility kinetic

compound: COc1cc(CC2C(=O)Nc3ccccc32)cc(C)c1O (stereo unspecified)
result: > 42.5 µg/mL

compound: Cc1ccc(NS(=O)(=O)c2c(C)[nH]c(=O)[nH]c2=O)cc1F
result: > 47 µg/mL

// solubility kinetic value for COc1cc(/C=C2\SC(=O)NC2=O)ccc1OCC(=O)N1CCOCC1 : > 56.8 µg/mL

* * *

Conditions: buffer; pH 7.4; 200.0 µM
Listed here are molecules together with their documented solubility kinetic.

Here's what some known entries look like.
molecule: Cc1ccc(NC(=O)Nc2ccc3c(c2)OCO3)cc1F
result: < 0.3 µg/mL
--
molecule: Cc1ccc(S(=O)(=O)N2CCC[C@H]2C(=O)Nc2ccccc2C)cc1
result: > 53.8 µg/mL

In the following, a different molecule is considered.
// solubility kinetic value for Cc1cc(C)c(C(=O)N(C)C2CCCN(Cc3ccccc3F)C2)o1 (stereo not drawn) : > 51.7 µg/mL

* * *

Details: buffer; pH 7.4; 200.0 µM
Listed here are compounds together with their documented solubility kinetic.

compound: Cl.O=C(NCCN1CCOCC1)c1ccccc1OCc1ccccc1
readout.name: solubility kinetic
result: > 0.0565 mg/mL

// solubility kinetic value for C/C(=N/NC(=O)CNC(=O)c1ccco1)c1ccco1 : > 0.0413 mg/mL

// solubility kinetic value for Nc1ccccc1SCC(O)Cn1ccc2ccccc21 (configuration not stated) : > 0.0448 mg/mL

// solubility kinetic value for CC(=O)Nc1ccc(NC(=O)COC(=O)[C@@H]2CCCN2C(=O)c2cccs2)cc1 : > 0.0623 mg/mL

// solubility kinetic value for Cc1ccc(OCCN2C(=O)C(=O)c3cccc(C)c32)cc1 : < 0.0006 mg/mL

// solubility kinetic value for C=CCn1c(SCC(=O)N(C)C)nc2cc(C(=O)O)ccc2c1=O : > 0.0521 mg/mL

// solubility kinetic value for CC(C)[C@H](NS(=O)(=O)c1ccccc1)C(=O)OCC(=O)NCc1ccc2c(c1)OCO2 : > 0.0673 mg/mL

* * *

Listed here are molecules together with their documented solubility kinetic.
Details: buffer; pH 7.4; 200.0 µM
Provide only the numeric value, understood in µg/mL.

Here's what some known entries look like.
molecule: COc1ccc(-c2cc(C(F)(F)F)c(C#N)c(=O)[nH]2)cc1
unit.text: µg/mL
solubility kinetic: 21.2
//
molecule: CS(=O)(=O)N(CC(=O)N1CCN(Cc2ccccc2)CC1)c1cccc(F)c1
unit.text: µg/mL
solubility kinetic: 57.9
//
molecule: CC1(C)CC(NC(=S)Nc2ccc([N+](=O)[O-])cc2)CC(C)(C)N1
unit.text: µg/mL
solubility kinetic: 42.1
//
molecule: CSc1ncccc1C(=O)OCC(=O)Nc1ccc(C)c(S(=O)(=O)N2CCOCC2)c1
unit.text: µg/mL
solubility kinetic: 21
//
molecule: COc1cccc(C(=O)Nc2cc(C)on2)c1OC
unit.text: µg/mL
solubility kinetic: 34
//
molecule: CCC1(c2ccccc2)NC(=O)N(CC(=O)NC2CCCCCC2)C1=O (stereo not drawn)
unit.text: µg/mL
solubility kinetic: 37.8
//
molecule: Cc1ccc(Nc2nc(N)c([N+](=O)[O-])c(NCCO)n2)cc1
unit.text: µg/mL
solubility kinetic: 18.7
//
molecule: O=C(NCCc1ccccc1)C1(c2ccccc2)CCCC1
unit.text: µg/mL
solubility kinetic: 28.9
//
molecule: CC(NCc1cccc(S(=O)(=O)N(C)C)c1)c1ccc(F)cc1 (stereo not drawn)
unit.text: µg/mL
solubility kinetic: 37.1
//
molecule: COc1ccc(C(=O)O/N=C(/c2ccccc2)c2ccncc2)cc1
unit.text: µg/mL
solubility kinetic: 5.6

// solubility kinetic value for COc1cccc(CNC(=O)COC(=O)c2ccc(Cl)s2)c1 : 1.4

// solubility kinetic value for CC(C)C(=O)NC(=S)Nc1c(Cl)ccc2nsnc12 : 40.1
